# EXPERIMENTAL SYSTEM: CyclinA2/CDK2 (Homo sapiens)
# Construct: purchased CRELUX Protein Services
# ASSAY INFO: Fluorescence Polarization (FP) competitive binding assay, Cyclin A2/Cdk2;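 further: plates equilibrated two hours at room temperature before polarization reading, IC50 fitted from eight-concentration compound titration curves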
# CONDITION: 8 nM Cyclin A2/Cdk2, 2 nM FAM probe; average of 2-3 independent experiments; read-out: Cyclin A FP IC50
pIC50: −log10 of the molar value. *1 amine or outer side, *2 acyl side, *3 side chain or, on linkers, in order; H or OH if unused. Where a SMILES comes first, the peptide text is derived from it. Bridges are numbered along the chain shown (N, C = ends). [ ]: non-standard residue; d: D form. The star is where a group is joined. X147 = CCSc1ccc(-c2ccc(Cl)cc2C[C@@H](C(=O)[*:2])N(C)[*:1])cn1; X196 = CN([C@@H](Cc1cc(F)ccc1-c1cnn2ccncc12)C(=O)[*:2])[*:1]; NMehhhLys(Me) = CN([C@@H](CCCCCCCN(C)[*:3])C(=O)[*:2])[*:1]; cBuCO(3,3-F2-1-CF3) = O=C(C1(C(F)(F)F)CC(F)(F)C1)*; Pro(trans-4-F) = O=C(O)[C@@H]1C[C@@H](F)CN1; Gly(cPr) = N[C@H](C(=O)O)C1CC1
REPORTED ENDPOINT: pIC50

CCSc1ccc(-c2ccc(Cl)cc2C[C@H]2C(=O)N(C)CCCCCCC[C@H](N(C)C(=O)[C@@H](NC(=O)[C@@H]3C[C@@H](F)CN3C(=O)C3(C(F)(F)F)CC(F)(F)C3)C3CC3)C(=O)N[C@@H](CC(C)C)C(=O)N2C)cn1 [Example 181] ({cBuCO(3,3-F2-1-CF3)}-[Pro(trans-4-F)][Gly(cPr)][NMehhhLys(Me)]L[X147]; lactam 3-C)    7.40
CC(C)C[C@@H]1NC(=O)[C@@H](N(C)C(=O)[C@@H](NC(=O)[C@@H]2C[C@@H](F)CN2C(=O)C2(C(F)(F)F)CC(F)(F)C2)C2CC2)CCCCCCCN(C)C(=O)[C@H](Cc2cc(F)ccc2-c2cnn3ccncc23)N(C)C1=O [Example 310] ({cBuCO(3,3-F2-1-CF3)}-[Pro(trans-4-F)][Gly(cPr)][NMehhhLys(Me)]L[X196]; lactam 3-C)    7.10
CC(C)C[C@@H]1NC(=O)[C@@H](N(C)C(=O)[C@@H](NC(=O)[C@@H]2C[C@@H](F)CN2C(=O)C2(C(F)(F)F)CC(F)(F)C2)C2CC2)CCCCCCN(C)C(=O)[C@H](Cc2cc(Cl)ccc2-c2cnn(C3CC3)c2)N(C)C1=O [Example 73]    7.52
CC(C)C[C@@H]1NC(=O)[C@@H](NC(=O)[C@@H](NC(=O)[C@@H]2C[C@@H](F)CN2C(=O)C2(C(F)(F)F)CC(F)(F)C2)C2CC2)CCCCCCCNC(=O)[C@H](Cc2cc(Cl)ccc2Cl)N(C)C1=O [Example 8]    7.52

###

# EXPERIMENTAL SYSTEM: CyclinB1/CDK1 (Homo sapiens, UniProt P14635)
# Construct: purchased Eurofins, discovery 14-450
# ASSAY INFO: Fluorescence Polarization (FP) competitive binding assay, Cyclin B1/Cdk1;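 further: fluorescence polarization read after equilibration at room temperature, with IC50 taken from serially diluted dose-response curves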
# CONDITION: 10 nM Cyclin B1/Cdk1, 2 nM FAM probe; average of 2-3 independent experiments; read-out: Cyclin B FP IC50
*1 amine or outer side, *2 acyl side, *3 side chain or, on linkers, in order; H or OH if unused. Where a SMILES comes first, the peptide text is derived from it. Bridges are numbered along the chain shown (N, C = ends). [ ]: non-standard residue; d: D form. The star is where a group is joined. X32 = CN([C@@H](Cc1cc(Cl)ccc1-c1ccc(N2CCOCC2=O)cc1)C(=O)[*:2])[*:1]; NMehhhLys(Me) = CN([C@@H](CCCCCCCN(C)[*:3])C(=O)[*:2])[*:1]; X5 = CN([C@@H](Cc1cc(Cl)ccc1-c1cnn2c1OCCC2)C(=O)[*:2])[*:1]; X29 = CN([C@@H](Cc1cc(Cl)ccc1-c1cn[nH]c1)C(=O)[*:2])[*:1]; X176 = CN([C@@H](Cc1cc(F)ccc1-c1cccnc1)C(=O)[*:2])[*:1]; cBuCO(3,3-F2-1-CF3) = O=C(C1(C(F)(F)F)CC(F)(F)C1)*; Pro(trans-4-F) = O=C(O)[C@@H]1C[C@@H](F)CN1; Gly(cPr) = N[C@H](C(=O)O)C1CC1
Listed here are molecules together with their documented IC50.
REPORTED ENDPOINT: IC50 (nM)

[2H]C([2H])([2H])n1cc(-c2ccc(Cl)cc2C[C@H]2C(=O)N(C)CCCCCCC[C@H](N(C)C(=O)[C@@H](NC(=O)[C@@H]3C[C@@H](F)CN3C(=O)C3(C(F)(F)F)CC(F)(F)C3)C3CC3)C(=O)N[C@@H](CC(C)C)C(=O)N2C)cn1 [Example 239]    20
CC(C)C[C@@H]1NC(=O)[C@@H](N(C)C(=O)[C@@H](NC(=O)[C@@H]2C[C@@H](F)CN2C(=O)C2(C(F)(F)F)CC(F)(F)C2)C2CC2)CCCCCCCN(C)C(=O)[C@H](Cc2cc(Cl)ccc2-c2cn[nH]c2)N(C)C1=O [Example 167] ({cBuCO(3,3-F2-1-CF3)}-[Pro(trans-4-F)][Gly(cPr)][NMehhhLys(Me)]L[X29]; lactam 3-C)    20
CC(C)C[C@@H]1NC(=O)[C@@H](N(C)C(=O)[C@@H](NC(=O)[C@@H]2C[C@@H](F)CN2C(=O)C2(C(F)(F)F)CCC2)C2CC2)CC=CCCCCN(C)C(=O)[C@H](Cc2cc(Cl)ccc2-c2cnn(C3CC3)c2)N(C)C1=O [Example 81]    20
CC(C)C[C@@H]1NC(=O)[C@@H](N(C)C(=O)[C@@H](NC(=O)[C@@H]2C[C@@H](F)CN2C(=O)C2(C(F)(F)F)CC(F)(F)C2)C2CC2)CCCCCCCN(C)C(=O)[C@H](Cc2cc(Cl)ccc2-c2ccc(N3CCOCC3=O)cc2)N(C)C1=O [Example 408] ({cBuCO(3,3-F2-1-CF3)}-[Pro(trans-4-F)][Gly(cPr)][NMehhhLys(Me)]L[X32]; lactam 3-C)    20
CC(C)C[C@@H]1NC(=O)[C@@H](N(C)C(=O)[C@@H](NC(=O)[C@@H]2C[C@@H](F)CN2C(=O)C2(C(F)(F)F)CC(F)(F)C2)C2CC2)CCCCCCCN(C)C(=O)[C@H](Cc2cc(Cl)ccc2-c2cnn3c2OCCC3)N(C)C1=O [Example 191] ({cBuCO(3,3-F2-1-CF3)}-[Pro(trans-4-F)][Gly(cPr)][NMehhhLys(Me)]L[X5]; lactam 3-C)    20
CC(C)C[C@@H]1NC(=O)[C@@H](N(C)C(=O)[C@@H](NC(=O)[C@@H]2C[C@@H](F)CN2C(=O)C2(C(F)(F)F)CC(F)(F)C2)C2CC2)CCCCCCCN(C)C(=O)[C@H](Cc2cc(F)ccc2-c2cccnc2)N(C)C1=O [Example 271] ({cBuCO(3,3-F2-1-CF3)}-[Pro(trans-4-F)][Gly(cPr)][NMehhhLys(Me)]L[X176]; lactam 3-C)    20
CC(C)C[C@@H]1NC(=O)[C@@H](N(C)C(=O)[C@@H](NC(=O)[C@@H]2C[C@@H](F)CN2C(=O)C2(C(F)(F)F)CC(F)(F)C2)C2CC2)CC=CCCCCN(C)C(=O)[C@H](Cc2cc(F)ccc2-c2cnn(S(C)(=O)=O)c2)N(C)C1=O [Example 87]    20
